tested on: Caco-2 cells; assay: Permeability test on Caco2 cells; type: in vitro ADME; settings: Caco2 cell model
readoutLabel: Penetration Type

INSERT INTO measurements (compound, readoutlabel, resultvalue) VALUES
  ('O=C1OC2(c3ccc(O)cc3Oc3cc(O)ccc32)c2ccccc21 [fluorescein]', 'Penetration Type', 'Zero'),
  ('CP(C)(=O)c1ccc(NCc2ccc(C(F)(F)F)cc2)c(-c2nccc(OC3COC3)n2)c1 [Compound 17]', 'Penetration Type', 'High'),
  ('COCCc1ccc(OCC(O)CNC(C)C)cc1 (stereo not shown) [Metoprolol]', 'Penetration Type', 'High');

* * *

assay: Permeability test on Caco2 cells; type: in vitro ADME; conditions: human, Caco-2, AP→BL, n = 2; read-out: Papp average value
readoutLabel: Papp at 120 min (×10⁻⁶ cm/s)

INSERT INTO results (chemicalsmiles, unitsymbol, resultvalue) VALUES
  ('O=C1OC2(c3ccc(O)cc3Oc3cc(O)ccc32)c2ccccc21', '×10⁻⁶ cm/s', 0.349);
